Give measured PBM binding z-score for each item. Keep answers brief.
- Test system: FXR:RXRa (NR concentration 270 nM, RXRa partner concentration 90 nM)
- run_description: PBM binding z-score (relative to random genomic background probes); higher = stronger binding; sequences stand for … in GC…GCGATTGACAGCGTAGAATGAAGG
One number for each entry.

Please give PBM binding z-score, item by item, for the list that follows.
1. CCTAGCAGGCCATGGTCACTCAAGCATTTCGCTT
2. TCGAGTAGGGTAGTCGGGGCATTCAGCCAACATA
3. AATACAGGGGCACTAGGCCAGAGTAGGTACGAAT
4. ATCGAAAGGTCGAGGTGAGTATCGAGAAAGGGAA
5. TGAATGAGGTTAAAGATCAGCGAACGTGGCGTCG
6. TTACCAAGGTGAGCGGAGGTCGTTGATCCAACTC

-0.268
-0.261
-0.0916
4.43
2.99
1.38

# batch: return PBM binding z-score for each of the 8 sequences below
1. AGAATGAGGTTATACGCAGATCAGGGAAGAAAGT
2. TATACAGGGTGAAAGGCCAGAGTACGAATGTCGA
3. CCGACTGGGGCAGAAAGGTCACCATACCATCCGG
4. CCTGCTAGGTCATGGACAGCTAATCTACAGTATG
5. CCTTACGGGTCACTGAAAGGTTATAGCATTTGGA
6. ATAGAAAGGTCGACGAGGTGAGTATACACCGTTT
7. TTATATAGGTAATACAGGTGAAAGTCGGCATCTA
8. ACAGACAGGTGATGAAGGTAACACAGGCTATCAT

[2.11, 0.996, 3.52, 3.61, 5.83, 4.55, 0.622, 0.124]

* * *

Give measured PBM binding z-score for each item. Keep answers brief.
- Tested on: THRa:RXRa (NR concentration 90 nM, RXRa partner concentration 90 nM)
- run_description: PBM binding z-score (relative to random genomic background probes); higher = stronger binding; sequences stand for … in GC…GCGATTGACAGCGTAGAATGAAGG
One number for each entry.

Consider the reported PBM binding z-score for these sequences:
sequence_entry	PBM binding z-score
CCTTACGGGTCACTGACAGGATATAGCATTTGGA	2.62
ACTCGGAGGACAAAGTTCAGAGCTACGCCAGTGA	1.71
ATATGTAGGTTACATCCGGGTTATTCAGGCTATG	2.18

For every record below, what is its PBM binding z-score?
1. CATCCAGGGTCAGCTAGGCCAGAGTAGGGACGGC
2. AACGAAAGGTCGTGAGGTGAGTATACAGAAAGGC
3. CATAGCAGGCCAGGGTCACTCAAGCATTTCGCTT
4. CCGACTGGGGCATAAGGTTACCACAAGCCAGCCC
5. TAGCCTAGGTCAATCAGGGGCCAGTATAGAAAGC
6. CCAGACAGGGGAGAAGGTAACTCAGCCTCGATTA
7. AATACAGGGTCATCGTAGGCCCGAGTACGCACAG

1. 3.18
2. 3.55
3. 3.07
4. 2.04
5. 3.22
6. -0.218
7. 3.72

Below are 3 sequences. Give each one its PBM binding z-score.
1. ATCCCTAGGTAAGACTCAGTTCAGTGAAGAACGC
2. AGAATGAGGTTATACGTAGATCAGGAAAGAAAGT
3. ACTATTAGTTGTCTTAGGGCAACCGATACGACGC

1. 0.832
2. 2.15
3. 1.03

// input: 8 sequences below; output: PBM binding z-score for each
1. CCAGACAGGTGCAAGGTAACTCAGTCTGGTACGC
2. ATGGAAAGGTCGACGAGGTGAGTATACACCGTTT
3. ATTAGTTGGTCAGCTGAGGTCACACACAATTCGG
4. ATACCAAGGTGATAGTGAGGTCGTTGATACTAAC
5. ACTATTAGTTGACTTAGGGGAACCGATACGACGC
6. CCTAGCAGGCCAATATGGGTCACTCAAGGCTTGA
7. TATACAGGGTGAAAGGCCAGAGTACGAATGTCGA
8. CCTAGTTGGTCAGGAGGTAACACACCGGATATGA

0.379
3.7
5.05
3.3
1.11
2.5
1.18
0.766

* * *

Kindly supply the reported PBM binding z-score values for the records listed here.
- Test system: RARb:RXRa (NR concentration 270 nM, RXRa partner concentration 90 nM)
- run_description: PBM binding z-score (relative to random genomic background probes); higher = stronger binding; sequences stand for … in GC…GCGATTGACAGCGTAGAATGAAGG
Numbers only.

sequence_entry	system	reported_metric	assay_result
CAAACTAGGTCAAGAGGTGAAAGTCCGCTTCCCG	RARb:RXRa (NR concentration 270 nM, RXRa partner concentration 90 nM)	PBM binding z-score	4.54
TCTATTAGTTGATTAGGGCTACCGAAACAGCGGA	RARb:RXRa (NR concentration 270 nM, RXRa partner concentration 90 nM)	PBM binding z-score	0.309

Next up:
What measured PBM binding z-score is associated with "ACTAGCAGGCCAAGTTTGGGTCACTCAAACAAAG" on RARb:RXRa (NR concentration 270 nM, RXRa partner concentration 90 nM)?
1.83

* * *

- System: PPARg DBDmut:RXRa IVT, anti-PPARg (DBD mutation: PPARg1 K132A/R137A, NR concentration 270 nM, RXRa partner concentration 90 nM)
- run_description: PBM binding z-score (relative to random genomic background probes); higher = stronger binding; sequences stand for … in GC…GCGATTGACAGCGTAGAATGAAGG
reported_metric: PBM binding z-score

Observe how each entry below is paired with its result.
sequence_entry	PBM binding z-score
CCTACTGGGCCATTCGGAGGTCATTGATCATATG	-0.0532
ATATGTAGGTTAGTTGGGGTCATTCAGACTAGGC	2.02
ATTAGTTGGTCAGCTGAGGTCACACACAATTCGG	0.989
CCTAGTTGGTCAAGGTCACAGACGCTATAGGTAC	0.729
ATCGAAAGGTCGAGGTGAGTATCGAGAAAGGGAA	0.156

Respectfully, I request PBM binding z-score for each entry included below.
1. ATATGTAGGTTAGATGGGGTCATTCAGACTAGGC
2. GATACAGGGTCAAGGCCAAAGTACGCGTATTGAT
3. CGACCAAGGTCAGAGAGGTCAGTGAATGCCGAGT
4. CCTACTGGGCCATGCAGAGGTCATTGATCATATG
5. CAAACTCGGTCACCGGAAGGTCAAAGTCCGCATG
6. AGAATGTGGTTACCAAAGATCAGGGAAACGCTTG
7. ATCTCTAGGTAAAGTTCAGTGGAAGATCGATAGA
8. GATGCAGGGTCAGCTAGAGGCCAGAGTATGGAAA

[2.97, 2.3, 0.125, 0.533, 0.644, 0.393, 1.21, -0.437]

# input sequence: "GTACCAAGTTGAATAGGTCGTTGATGAGTAGGCG" ; wanted: its PBM binding z-score
0.192

* * *

- Test system: VDR homodimer (NR concentration 270 nM)
- run_description: PBM binding z-score (relative to random genomic background probes); higher = stronger binding; sequences stand for … in GC…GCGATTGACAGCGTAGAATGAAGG
# label = bin(measured PBM binding z-score), where bins are range A = under 0.4, range B = from 0.4 up to 1, range C = 1 and over

Reference set (3 entries):
sequence_entry	classification
ATCTCTAGGTAAAAGTTGAGTGAATCCCGAGGAT	range A
CCTGCTAGGTAAATGGTCAGCTAAAGCAGCTCGC	range A
CGTACAAGGTCAAGGTCAGTGAAAGAGACTCGAA	range C

Hi there! Could you help me figure out the category for "CAAACTAGGTCAAGAGGTCCAAGTCCGCTTCCCG" please?
range C

Repeat for the following sequence: "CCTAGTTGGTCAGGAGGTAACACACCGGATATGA"
range B

Okay, and "TCGAGTAGGTTACCAATCGGGCATTCAGCTTTCT" ?
range A

Repeat with "AGAATGAGGTTACCAAAGATCATGGAAACGCTTG"
range B

// same read-out, input: "CCTACTGGGCCCAGGTCATTGATCAGTCAAAGCA"
range C

Further, for "GGAACTAGGGCAAGTTGATAGCAGAGTTTGATGG" ?
range A

How about this sequence: "CCCACTGGGGCAGAAAGGTTACCATACCATCCGG"
range A

Next record, please: "TCTATTAGTTGATTAGGGCAATCGAAACAGCGGA"
range B

* * *

- System: RXRa homodimer (NR concentration 180 nM)
- run_description: PBM binding z-score (relative to random genomic background probes); higher = stronger binding; sequences stand for … in GC…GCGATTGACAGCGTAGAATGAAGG
Decide using PBM binding z-score: a value greater than or equal to 0.7 is yes, a smaller one is no.

Examples from the recorded data:
sequence_entry	classification
CAGCCTTGGTCAGGGCCAGTATAGGAGGAACGTT	no
ATCTCTAGGTAAAGATAGTTCCGTGAATGCAAAT	no
AGACAAAGTTCATCTAGGTAACGTAAGATATGCT	yes

Answer whether PBM binding z-score of "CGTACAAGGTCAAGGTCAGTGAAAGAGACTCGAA" is greater than or equal to 0.7.
yes

Field entry: "TGAATGAGGTTATCAGATCAGGGAACGTTGCAAA"
yes

Also, "CCTGCTAAGTCATGGTCAGCTAATCTACAGTATG" please.
no
